# Test system: crabgrass, large (large crabgrass, Digitaria sanguinalis)
# TEST_PROTOCOL: Test A pre-/postemergence: crabgrass, large
# Assay type: in vivo
# CONDITION_CONTEXT: Preemergence, 500 g ai/ha; 0 to 100 scale, 0 is no effect, 100 is complete control
Field: Plant response rating, Crabgrass, Large. Provide a value for each of the molecules that follow.
Numbers only.

Use these answered entries as a reference point.
- Cc1nn(-c2ccc(C(F)(F)F)cc2)nc1Oc1ccc(Cl)c(C(F)(F)F)c1: 10
- Cc1nn(-c2ccc(Cl)cc2)nc1C(=O)c1cccc(C(F)(F)F)c1: 50

Please go through the list and note Plant response rating, Crabgrass, Large for each molecule.
1. Cc1nn(-c2ccccc2[N+](=O)[O-])nc1C(=O)c1cccc(C(F)(F)F)c1
2. Cc1nn(-c2ccc(F)cc2Cl)nc1Cc1ccnc(C(F)(F)F)c1
3. Cc1nn(-c2ccc(C(F)(F)F)cn2)nc1Cn1ccc(C(F)(F)F)n1

Result ::
[0, 100, 100]
